Target: HRgpA-6H (Porphyromonas gingivalis) (UniProt P28784)
Experiment: ELISA, FASEBA Fab on coated HRgpA-6H
Exercise: for every item that follows, state its recorded OD450nm.
Write the value as a bare number.

Documented OD450nm of KB001 mouse Fab VL S30I (Fab, V domains shown) VH: EVQLKQSGPGLVAPSQSLSITCTVSGFSLSIYSVHWVRQPPGKGLEWLGMIWGGGSSDYNSALKSRLSISKDNSKSQVFLKMNSLQTDDTAMYYCARNGNFYAMDYWGQGTSVTVSS VL: QIVLTQSPAIMSASLGERVTMTCTASSSVISSFLHWYQQKPGSSPQLWIYSTSNLASGVPARFSGSGSGTSYSLTISSMEAEDAATYYCHQYHHSPYIYTFGGGTKLEIK : 0.86

Documented OD450nm of KB001 mouse Fab VL S28N (Fab, V domains shown) VH: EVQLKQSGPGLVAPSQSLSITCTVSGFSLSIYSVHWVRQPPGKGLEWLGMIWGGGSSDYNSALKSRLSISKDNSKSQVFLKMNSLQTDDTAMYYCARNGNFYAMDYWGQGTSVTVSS VL: QIVLTQSPAIMSASLGERVTMTCTASSNVSSSFLHWYQQKPGSSPQLWIYSTSNLASGVPARFSGSGSGTSYSLTISSMEAEDAATYYCHQYHHSPYIYTFGGGTKLEIK : 0.743

The values you see were collected from patent US20230365662A1.
